Reference source: patent US20240010684A1

Target: UniProtKB P48740
Sequence (P48740 other isoform, or with tags, fused parts or gaps): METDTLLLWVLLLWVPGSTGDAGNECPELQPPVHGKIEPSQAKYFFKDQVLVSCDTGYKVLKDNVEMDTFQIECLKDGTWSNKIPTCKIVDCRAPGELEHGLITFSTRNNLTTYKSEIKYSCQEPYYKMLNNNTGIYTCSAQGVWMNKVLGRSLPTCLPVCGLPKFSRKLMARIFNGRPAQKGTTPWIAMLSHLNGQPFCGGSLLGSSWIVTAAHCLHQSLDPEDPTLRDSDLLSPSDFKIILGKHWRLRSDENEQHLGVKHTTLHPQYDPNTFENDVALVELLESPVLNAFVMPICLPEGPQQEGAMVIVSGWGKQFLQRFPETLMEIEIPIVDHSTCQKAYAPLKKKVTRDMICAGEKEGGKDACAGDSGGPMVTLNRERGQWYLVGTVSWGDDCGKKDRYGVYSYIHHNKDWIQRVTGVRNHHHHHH
Experiment: Biochemical human MASP1 assay (FRET substrate)
Conditions: Average IC50; recombinant human MASP1; read-out: human MASP1 IC50
Where a SMILES comes first, the peptide text is derived from it. Bridges are numbered along the chain shown (N, C = ends). [ ]: non-standard residue; d: D form. Oic = O=C(O)[C@@H]1C[C@@H]2CCCC[C@@H]2N1; Pen = CC(C)(S)[C@H](N)C(=O)O; Ahx = NCCCCCC(=O)O
observable: IC50 (nM)
# output: bare number, implied unit nM

- CC[C@H](C)[C@@H]1NC(=O)CCCCCNC(=O)CC[C@@H](C(N)=O)NC(=O)[C@@H]2CCCN2C(=O)[C@H]([C@@H](C)CC)NC(=O)[C@H]2NC(=O)[C@H]([C@@H](C)CC)NC(=O)[C@@H]3C[C@@H]4CCCC[C@@H]4N3C(=O)[C@@H]3CCCN3C(=O)[C@H](CC(C)C)NC(=O)[C@H](CO)NC(=O)[C@H](CCCNC(=N)N)NC(=O)[C@H](CO)NC(=O)[C@H](CSSC2(C)C)NC1=O [Example 75] ([Ahx]ICSRSLP[Oic]I[Pen]IPE-NH2; disulfide 3-11; lactam N-14): 7.2

**Q:** Would you kindly share the measured IC50 for CC[C@H](C)[C@@H]1NC(=O)CNC(=O)CNC(=O)[C@H](CC(=O)O)NC(=O)[C@@H]2CCCN2C(=O)[C@H]([C@@H](C)CC)NC(=O)[C@@H]2CSSC[C@H](NC1=O)C(=O)N[C@@H](CO)C(=O)N[C@@H](CCCNC(=N)N)C(=O)N[C@@H](CO)C(=O)N[C@@H](CC(C)C)C(=O)N1CCC[C@H]1C(=O)N1CCC[C@H]1C(=O)N[C@@H]([C@@H](C)CC)C(=O)N2 [Example 15] (cyclo(CIPDGGICSRSLPPI); disulfide 1-8) ?
**A:** 120

* * *

Target: UniProt Q9JJS8
Sequence (Q9JJS8 other isoform, or with tags, fused parts or gaps): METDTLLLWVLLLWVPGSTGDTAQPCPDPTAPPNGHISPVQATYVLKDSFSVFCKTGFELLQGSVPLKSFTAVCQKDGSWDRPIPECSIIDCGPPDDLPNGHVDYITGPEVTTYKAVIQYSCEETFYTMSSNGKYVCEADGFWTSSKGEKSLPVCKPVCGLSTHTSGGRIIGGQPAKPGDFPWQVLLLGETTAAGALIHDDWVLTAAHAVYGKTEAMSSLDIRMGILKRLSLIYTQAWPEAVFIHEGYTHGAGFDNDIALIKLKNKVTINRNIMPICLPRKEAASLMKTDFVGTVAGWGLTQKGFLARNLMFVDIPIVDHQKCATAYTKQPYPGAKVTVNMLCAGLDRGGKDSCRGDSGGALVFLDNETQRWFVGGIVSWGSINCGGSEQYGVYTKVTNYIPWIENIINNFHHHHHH
Assay: Biochemical rat MASP2 assay (FRET substrate)
Conditions: Average IC50; recombinant rat MASP2; read-out: rat MASP2 IC50
Where a SMILES comes first, the peptide text is derived from it. Bridges are numbered along the chain shown (N, C = ends). [ ]: non-standard residue; d: D form. tBuAla = CC(C)(C)C[C@H](N)C(=O)O; Pen = CC(C)(S)[C@H](N)C(=O)O
observable: IC50 (nM)
# output: bare number, implied unit nM

**Q:** Would you kindly share the measured IC50 for CC[C@H](C)[C@@H]1NC(=O)CNC(=O)CNC(=O)[C@H](C)NC(=O)[C@@H](CC(=O)O)NC(=O)[C@@H]2CCCN2C(=O)[C@H]([C@@H](C)CC)NC(=O)[C@H]2NC(=O)[C@H]([C@@H](C)CC)NC(=O)[C@@H]3CCCN3C(=O)[C@@H]3CCCN3C(=O)[C@H](CC(C)(C)C)NC(=O)[C@H](CO)NC(=O)[C@H](CCCNC(=N)N)NC(=O)[C@H](CO)NC(=O)[C@H](CSSC2(C)C)NC1=O [Example 39] (cyclo(AGGICSRS[tBuAla]PPI[Pen]IP[dD]); disulfide 5-13) ?
**A:** 8

* * *

Biological target: human MASP2 (Homo sapiens (Human), UniProt O00187)
Sequence (O00187 other isoform, or with tags, fused parts or gaps): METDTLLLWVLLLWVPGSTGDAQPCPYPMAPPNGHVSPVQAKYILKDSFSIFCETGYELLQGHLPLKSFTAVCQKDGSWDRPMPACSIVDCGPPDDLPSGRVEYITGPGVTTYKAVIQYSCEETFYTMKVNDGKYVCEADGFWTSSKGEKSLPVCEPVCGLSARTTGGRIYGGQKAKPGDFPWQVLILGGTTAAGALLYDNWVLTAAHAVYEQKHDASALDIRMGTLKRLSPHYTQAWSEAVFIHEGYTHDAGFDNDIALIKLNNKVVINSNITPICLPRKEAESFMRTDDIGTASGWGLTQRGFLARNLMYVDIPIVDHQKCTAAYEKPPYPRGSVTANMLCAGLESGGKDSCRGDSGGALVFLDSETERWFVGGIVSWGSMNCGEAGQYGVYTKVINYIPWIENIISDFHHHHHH
Experiment: Biochemical human MASP2 assay (FRET substrate)
Settings: Average IC50; recombinant human MASP2; read-out: human MASP2 IC50
Procedure: The MASP1 or MASP2 expression vectors were transfected into the HEK293 (ATCC No. CRL-1573) cell line using Lipofectamine LTX® Reagent (Thermo-Fischer), as described by the manufacturer. […] The increase of fluorescence intensity was measured in appropriate fluorescence plate reader (e.g. TECAN Ultra) using excitation wavelength of 340 nm and emission wavelength of 490 nm. IC50 values were calculated from percentage of inhibition of human MASP2 activity as a function of test compound concentration.
Where a SMILES comes first, the peptide text is derived from it. Bridges are numbered along the chain shown (N, C = ends). [ ]: non-standard residue; d: D form. Oic = O=C(O)[C@@H]1C[C@@H]2CCCC[C@@H]2N1; Trx = NC[C@H]1CC[C@H](C(=O)O)CC1; tBuAla = CC(C)(C)C[C@H](N)C(=O)O; Pen = CC(C)(S)[C@H](N)C(=O)O; NMeC = CN[C@@H](CS)C(=O)O; Orn = NCCC[C@H](N)C(=O)O; Dap = NC[C@H](N)C(=O)O; Ahx = NCCCCCC(=O)O
observable: pIC50
Answer as the number alone; pIC50 is minus log10 of concentration in mol/L.

Example entries and their recorded answers appear below.
- CC[C@H](C)[C@@H]1NC(=O)CNC(=O)[C@H]2CC[C@@H](CC2)CNC(=O)CNC(=O)C[C@@H](C(N)=O)NC(=O)[C@@H]2CCCN2C(=O)[C@H]([C@@H](C)CC)NC(=O)[C@@H]2CSSC[C@H](NC1=O)C(=O)N[C@@H](CO)C(=O)N[C@@H](CCCNC(=N)N)C(=O)N[C@@H](CO)C(=O)N[C@@H](CC(C)(C)C)C(=O)N1CCC[C@H]1C(=O)N1CCC[C@H]1C(=O)N[C@@H]([C@@H](C)CC)C(=O)N2C [Example 69] (G[Trx]GICSRS[tBuAla]PPI[NMeC]IPD-NH2; disulfide 5-13; lactam N-16): 6.72
- CC[C@H](C)[C@@H]1NC(=O)[C@H](C)NC(=O)CCCCCNC(=O)C[C@@H](C(N)=O)NC(=O)[C@@H]2CCCN2C(=O)[C@H]([C@@H](C)CC)NC(=O)[C@H]2NC(=O)[C@H]([C@@H](C)CC)NC(=O)[C@@H]3C[C@@H]4CCCC[C@@H]4N3C(=O)[C@H]3CCCN3C(=O)[C@H](CC(C)C)NC(=O)[C@H](CO)NC(=O)[C@H](CCCNC(=N)N)NC(=O)[C@H](CO)NC(=O)[C@H](CSSC2(C)C)NC1=O [Example 43]: 6.92
- CC[C@H](C)[C@@H]1NC(=O)[C@H](C)NC(=O)CCCCCNC(=O)[C@H](CC(=O)O)NC(=O)[C@@H]2CCCN2C(=O)[C@H]([C@@H](C)CC)NC(=O)[C@@H]2CSSC[C@H](NC1=O)C(=O)N[C@@H](CO)C(=O)N[C@@H](CCCNC(=N)N)C(=O)N[C@@H](CO)C(=O)N[C@@H](CC(C)C)C(=O)N1CCC[C@H]1C(=O)N1CCC[C@H]1C(=O)N[C@@H]([C@@H](C)CC)C(=O)N2 [Example 45] (cyclo(AICSRSLPPICIPD[Ahx]); disulfide 3-11): 7.13
- CC[C@H](C)[C@@H]1NC(=O)CNC(=O)[C@@H](N)CCCCNC(=O)[C@H](CC(=O)O)NC(=O)[C@@H]2CCCN2C(=O)[C@H]([C@@H](C)CC)NC(=O)[C@@H]2CSSC[C@H](NC1=O)C(=O)N[C@@H](CO)C(=O)N[C@@H](CCCNC(=N)N)C(=O)N[C@@H](CO)C(=O)N[C@@H](CC(C)C)C(=O)N1CCC[C@H]1C(=O)N1CCC[C@H]1C(=O)N[C@@H]([C@@H](C)CC)C(=O)N2 [Example 22] (H-KGICSRSLPPICIPD; lactam 1-C; disulfide 4-12): 7.04
- CC[C@H](C)[C@@H]1NC(=O)CNC(=O)CNC(=O)[C@H](C)NC(=O)[C@@H](CC(=O)O)NC(=O)[C@@H]2CCCN2C(=O)[C@H]([C@@H](C)CC)NC(=O)[C@@H]2CSSC[C@H](NC1=O)C(=O)N[C@@H](CO)C(=O)N[C@@H](CCCNC(=N)N)C(=O)N[C@@H](CO)C(=O)N[C@@H](CC(C)C)C(=O)N1CCC[C@H]1C(=O)N1CCC[C@H]1C(=O)N[C@@H]([C@@H](C)CC)C(=O)N2 [Example 17] (cyclo(AGGICSRSLPPICIP[dD]); disulfide 5-13): 7.06

**Q:** Would you kindly share the measured pIC50 for CC[C@H](C)[C@@H]1NC(=O)[C@@H](N)CNC(=O)[C@@H]2CCCN2C(=O)[C@H]([C@@H](C)CC)NC(=O)[C@H]2NC(=O)[C@H]([C@@H](C)CC)NC(=O)[C@@H]3C[C@@H]4CCCC[C@@H]4N3C(=O)[C@@H]3CCCN3C(=O)[C@H](CC(C)C)NC(=O)[C@H](CO)NC(=O)[C@H](CCCNC(=N)N)NC(=O)[C@H](CO)NC(=O)[C@H](CSSC2(C)C)NC1=O [Example 85] (H-[Dap]ICSRSLP[Oic]I[Pen]IP; lactam 1-C; disulfide 3-11) ?
**A:** 6.00

**Q:** Would you kindly share the measured pIC50 for CC[C@H](C)[C@@H]1NC(=O)CNC(=O)CCCCCNC(=O)C[C@@H](C(N)=O)NC(=O)[C@@H]2CCCN2C(=O)[C@H]([C@@H](C)CC)NC(=O)[C@H]2NC(=O)[C@H]([C@@H](C)CC)NC(=O)[C@@H]3CCCN3C(=O)[C@@H]3CCCN3C(=O)[C@H](CC(C)(C)C)NC(=O)[C@H](CO)NC(=O)[C@H](CCCNC(=N)N)NC(=O)[C@H](CO)NC(=O)[C@H](CSSC2(C)C)NC1=O [Example 48] ([Ahx]GICSRS[tBuAla]PPI[Pen]IPD-NH2; disulfide 4-12; lactam N-15) ?
**A:** 7.15

**Q:** Would you kindly share the measured pIC50 for CC[C@H](C)[C@@H]1NC(=O)[C@H](C)NC(=O)CNC(=O)[C@H](C)NC(=O)[C@H](CC(=O)O)NC(=O)[C@@H]2CCCN2C(=O)[C@H]([C@@H](C)CC)NC(=O)[C@@H]2CSSC[C@H](NC1=O)C(=O)N[C@@H](CO)C(=O)N[C@@H](CCCNC(=N)N)C(=O)N[C@@H](CO)C(=O)N[C@@H](CC(C)(C)C)C(=O)N1CCC[C@H]1C(=O)N1CCC[C@H]1C(=O)N[C@@H]([C@@H](C)CC)C(=O)N2C [Example 31] (cyclo(AGAICSRS[tBuAla]PPI[NMeC]IPD); disulfide 5-13) ?
**A:** 6.89

**Q:** Would you kindly share the measured pIC50 for CC[C@H](C)[C@@H]1NC(=O)CNC(=O)[C@H](CCCN)NC(=O)[C@H]([C@@H](C)CC)NC(=O)[C@H]2NC(=O)[C@H]([C@@H](C)CC)NC(=O)[C@@H]3CCCN3C(=O)[C@@H]3CCCN3C(=O)[C@H](CC(C)(C)C)NC(=O)[C@H](CO)NC(=O)[C@H](CCCNC(=N)N)NC(=O)[C@H](CO)NC(=O)[C@H](CSSC2(C)C)NC1=O [Example 65] (cyclo(CSRS[tBuAla]PPI[Pen]I[Orn]GI); disulfide 1-9) ?
**A:** 6.27
